These measurements were taken from the domain aggregation screens of Martell et al. (2025).

test: soluble fraction after stress (log2 fold change); higher = more stays soluble; pooled small domains, quantitative proteomics; details: stress: pH 4
Each record's soluble fraction (log2) is compared with label 0: < -0.6; label 1: ≥ -0.6 and < -0.2; label 2: ≥ -0.2 to give its class.

Consider the following illustrative entries.
stdin: Pick a category. Item: HMEILNYVVSDGQSGIRIDRYLSDSNEDLSRSYIQKLLKEQKVTVQGTFVKANYKVQAGDVITVEVPDMA
stdout: label 2

stdin: Could you place HMELVIGESLAVELLRPGKEDGQALGYLPDGSMVVVNNGRAFVGKRVTAEIIGVIRSAGGKMVFSNLLGE in its proper category? Many thanks.
stdout: label 0

stdin: Tag the class for HMGLIDNLTRIMEKKNISAYQLEKAGIVKQTTFTSWKKGTQPALDKIIKIMQYIEVTPNELFGY
stdout: label 1

stdin: Which class is correct for the following sequence? HMEKKGTVVIATVKGDIHDIGKNIVKVLLENYGFDVIDLGKDVPPEAVVEAVQQSGARLVGLSALM
stdout: label 1

stdin: Form field 'band' for HMDTLKDFISGVSIVFENKYSVGDNVTIGDFRGDVIELGMKTTKIRAYTGEVLIIPNHLVEKVINH
stdout: label 0

stdin: Which bin should I file HMESYDSEIKEVLDLAGKGRWEEAQTKADALREMAPNNSLVERLHGWVLQAAHQRREQALENDIRE under?
stdout: label 2

stdin: Pick a category. Item: HMSQEAKLAMPVTDLRLSARTLNALELANIRTVRDLVSHTEEQLLELRNFGETALAEVKEKLAALGLRLGM
stdout: label 1

stdin: Entry HMQENFYMILESEERRVLDVLVADQPESVATFLKLVSPFPNYKIILEHINEKALDFYEETVI belongs to which category?
stdout: label 0

stdin: Entry HMSDAVQLGLRLRAARERRGLSQQAVADALGLPRTAVTNMESGNRAVSTLELTKLAALYGQSTAFFLSP belongs to which category?
stdout: label 2

stdin: Into which category would you place HMFGEKEFYQWIGKTAGEKFSGLPAAVIKSLYKYWREYNLSEEDIMGFIRQTELLPKRTPLDVELFFEK ?
stdout: label 0

Continuing:
stdin: Place this sequence in its band: HMFLTPLEETRLAIEEVVIAKNIAIDLFPRESAIRKQQHELIYHYHLKGLTVGTEKNKRLRIFPRGY
stdout: label 1

stdin: Class label required: HMSEQLHALIDRLDDIPDDELKKNWPGTLRDLVDVISAELHRQGIEPAQAGMLARKVAAAQAGYMG
stdout: label 0

stdin: Record HMSAVVAPLPGLIQNILVKVGDTVHAGQHVLTMEAMKMENEIQTNRDGIIKDIKVRIGDSVNEGDTLIIL — which class?
stdout: label 1

stdin: Class (by measured soluble fraction (log2)) for HMGKLYRDRYAPLEPDGARAGDRVFIISLEKEGTLERIDLPRKTATVLLGSSIRSTFPLDDLYQPRG
stdout: label 2

----------
test: soluble fraction after stress (log2 fold change); higher = more stays soluble; pooled small domains, quantitative proteomics; conditions: stress: pH 4
Recorded soluble fraction (log2), one value per entry.
Write the value as a bare number.

Solved entries (count: 7):
stdin: Supply measured soluble fraction (log2) of HMGDIMLLFKENGKVYFLVGNQYTYVKNPTELSAIKTMMKQAGYDTHEHTNTTQVAYIKRLATE in your reply.
stdout: -0.419

stdin: Specify reported soluble fraction (log2) for the sequence shown: HMSGPDGLTEREIEVLRLLASGLSNRAIGERLYISTNTAANHVRSILLKTGAANRTQAAMYAADHEML
stdout: 0.0798

stdin: Consider the sequence HMKIQTYEDFRNAYPDIQGSLFGSAERYKTDLDWGDVAAKYDADEELKNVRNIFQLVRRYEQKYS and give its recorded soluble fraction (log2).
stdout: -0.643

stdin: Give the measured soluble fraction (log2) for HMNTPLYLKIREQIFDALRSGRWAANDPLPSETKLASEFEVSQGTIRKAIDDLVAQNILYRHQGRGTFIRR
stdout: 0.125

stdin: # return recorded soluble fraction (log2) for entry HMKTLGMDKGVNIALNDAGLRAEDVSNLSAHYDTEDGVPVYEIKFTAGGFSYEYQIKASDGTIIEADRDAA
stdout: -0.0393

stdin: Quickly give me recorded soluble fraction (log2) for HMNNDFVERLRKLFGHASMAEIARRIDVPHATIRNYFQGRLPAPEVLIKLARETGVSLNWLLTGEGKMFA
stdout: -0.113

stdin: Please list soluble fraction (log2) recorded for the sequence HMRGYGDRIRILRERAGITIEQLAERLGVAPYFIRRTELSEVYPTKPYIEALADVLNIDASYLARHI
stdout: -0.972

More entries:
stdin: Indicate the recorded soluble fraction (log2) value for this sequence: HMSSRLEIEITSKIDDLSHTWRAVGAKQPKGNIKSSLLPSGVKVGETFRVEADFLLDGIEIVSVLPP
stdout: -1.52
